Just for reference, patent US20240109903A1 is where these values come from.

Test system: SF-268
Experimental protocol: NCI 60 five-dose screen SF-268
Assay type: cell-based
Experimental conditions: Homo sapiens, five-dose
Measured pIC50 values are reported for all entries that follow.
On this scale, pIC50 is minus log10 of a concentration expressed in M (mol/L).

FC(F)(F)c1cc2c(Cl)ncnc2n1CCN1CCOCC1 [NUCC-0226680]
4.55
FC(F)(F)c1cc2c(Cl)ncnc2n1CCN1CCCCC1 [NUCC-0226679]
4.51
FC(F)(F)CN1CCN(CCn2c(C(F)(F)F)cc3c(Cl)ncnc32)CC1 [NUCC-0226683]
4.94
FC(F)(F)c1cc2c(Cl)ncnc2n1CCC1CCOCC1 [NUCC-0226674]
5.34

API: the following record is the query input.
(Q) Quick check: pIC50 of OC1CCC(Cn2c(C(F)(F)F)cc3c(Cl)ncnc32)CC1 (centres unmarked) [NUCC-0226689] ?
(A) 5.35
